Where do these numbers come from? They come from the supplement of paper PMC5998384.

Tested on: HeLa Kyoto
test.summary: melting temperature (median over replicates), in situ; higher = more thermally stable
experimental.setup: cell cycle stage: G1/S
Documented melting temperature across a set of sequences
Your answer should be a plain number; it is taken to be in °C.

Below, 2 sequences whose answers are already recorded.
INSERT INTO measurements (residue_sequence, target, value_measured) VALUES
  ('MVDYSVWDHIEVSDDEDETHPNIDTASLFRWRHQARVERMEQFQKEKEELDRGCRECKRKVAECQRKLKELEVAEGGKAELERLQAEAQQLRKEERSWEQKLEEMRKKEKSMPWNVDTLSKDGFSKSMVNTKPEKTEEDSEEVREQKHKTFVEKYEKQIKHFGMLRRWDDSQKYLSDNVHLVCEETANYLVIWCIDLEVEEKCALMEQVAHQTIVMQFILELAKSLKVDPRACFRQFFTKIKTADRQYMEGFNDELEAFKERVRGRAKLRIEKAMKEYEEEERKKRLGPGGLDPVEVYESLPEELQKCFDVKDVQMLQDAISKMDPTDAKYHMQRCIDSGLWVPNSKASEAKEGEEAGPGDPLLEAVPKTGDEKDVSV [CDC37]', 'HeLa Kyoto', 52.1),
  ('MSGCDAREGDCCSRRCGAQDKEHPRYLIPELCKQFYHLGWVTGTGGGISLKHGDEIYIAPSGVQKERIQPEDMFVCDINEKDISGPSPSKKLKKSQCTPLFMNAYTMRGAGAVIHTHSKAAVMATLLFPGREFKITHQEMIKGIKKCTSGGYYRYDDMLVVPIIENTPEEKDLKDRMAHAMNEYPDSCAVLVRRHGVYVWGETWEKAKTMCECYDYLFDIAVSMKKVGLDPSQLPVGENGIV [APIP]', 'HeLa Kyoto', 59.3);

The sequence MEDDAPVIYGLEFQARALTPQTAETDAIRFLVGTQSLKYDNQIHIIDFDDENNIINKNVLLHQAGEIWHISASPADRGVLTTCYNRTSDSKVLTCAAVWRMPKELESGSHESPDDSSSTAQTLELLCHLDNTAHGNMACVVWEPMGDGKKIISLADNHILLWDLQESSSQAVLASSASLEGKGQLKFTSGRWSPHHNCTQVATANDTTLRGWDTRSMSQIYCIENAHGQLVRDLDFNPNKQYYLASCGDDCKVKFWDTRNVTEPVKTLEEHSHWVWNVRYNHSHDQLVLTGSSDSRVILSNMVSISSEPFGHLVDDDDISDQEDHRSEEKSKEPLQDNVIATYEEHEDSVYAVDWSSADPWLFASLSYDGRLVINRVPRALKYHILL [TSSC1] showed melting temperature equal to 51.9

----------
Test system: HeLa Kyoto
test.summary: thermal stability score vs G1/S (z-score of summed log2 fold changes over temperatures); higher = more thermally stable than in G1/S
experimental.setup: cell cycle stage: mitosis
property.measured: thermal stability score
Just the number, please.

Below, 4 sequences whose answers are already recorded.
INSERT INTO assay_data (residue_sequence, target, property_measured, value_measured) VALUES
  ('MVSWMICRLVVLVFGMLCPAYASYKAVKTKNIREYVRWMMYWIVFALFMAAEIVTDIFISWFPFYYEIKMAFVLWLLSPYTKGASLLYRKFVHPSLSRHEKEIDAYIVQAKERSYETVLSFGKRGLNIAASAAVQAATKSQGALAGRLRSFSMQDLRSISDAPAPAYHDPLYLEDQVSHRRPPIGYRAGGLQDSDTEDECWSDTEAVPRAPARPREKPLIRSQSLRVVKRKPPVREGTSRSLKVRTRKKTVPSDVDS [REEP4]', 'HeLa Kyoto', 'thermal stability score', -1.58),
  ('MDDLCEANGTFAISLFKILGEEDNSRNVFFSPMSISSALAMVFMGAKGSTAAQMSQALCLYKDGDIHRGFQSLLSEVNRTGTQYLLRTANRLFGEKTCDFLPDFKEYCQKFYQAELEELSFAEDTEECRKHINDWVAEKTEGKISEVLDAGTVDPLTKLVLVNAIYFKGKWNEQFDRKYTRGMLFKTNEEKKTVQMMFKEAKFKMGYADEVHTQVLELPYVEEELSMVILLPDDNTDLAVVEKALTYEKFKAWTNSEKLTKSKVQVFLPRLKLEESYDLEPFLRRLGMIDAFDEAKADFSGMSTEKNVPLSKVAHKCFVEVNEEGTEAAAATAVVRNSRCSRMEPRFCADHPFLFFIRHHKTNCILFCGRFSSP [SERPINB8]', 'HeLa Kyoto', 'thermal stability score', -0.739),
  ('MEERERGARSAGAGSPARPPSPRLDVSSDSFDPLLALYAPRLPPIPYPNAPCFNNVAEYESFLRTGVRGGGRGRGRARGAAAGSGVPAAPGPSGRTRRRPDAPAPDPERIQRLRRLMVAKEEGDGAAGAGRRGPGRSRKAPRNVLTRMPLHEGSPLGELHRCIREGVKVNVHIRTFKGLRGVCTGFLVAFDKFWNMALTDVDETYRKPVLGKAYERDSSLTLTRLFDRLKLQDSSKKEADSKSAVEDSTLSRYSQTSTWKLASVWGRADTGRGSHKRSRSVPSSLQASAREESRSELSGRTTRTDGSSVGGTFSRATTLSRGQSRKKKRKPKVDYQQVFTRHINQIFIRGENVLLVHLAQ [LSM11]', 'HeLa Kyoto', 'thermal stability score', 0.837),
  ('MGHRFLRGLLTLLLPPPPLYTRHRMLGPESVPPPKRSRSKLMAPPRIGTHNGTFHCDEALACALLRLLPEYRDAEIVRTRDPEKLASCDIVVDVGGEYDPRRHRYDHHQRSFTETMSSLSPGKPWQTKLSSAGLIYLHFGHKLLAQLLGTSEEDSMVGTLYDKMYENFVEEVDAVDNGISQWAEGEPRYALTTTLSARVARLNPTWNHPDQDTEAGFKRAMDLVQEEFLQRLDFYQHSWLPARALVEEALAQRFQVDPSGEIVELAKGACPWKEHLYHLESGLSPPVAIFFVIYTDQAGQWRIQCVPKEPHSFQSRLPLPEPWRGLRDEALDQVSGIPGCIFVHASGFIGGHRTREGALSMARATLAQRSYLPQIS [C12ORF10]', 'HeLa Kyoto', 'thermal stability score', -1.46);

Switching to the query record.
The sequence MSNMEKHLFNLKFAAKELSRSAKKCDKEEKAEKAKIKKAIQKGNMEVARIHAENAIRQKNQAVNFLRMSARVDAVAARVQTAVTMGKVTKSMAGVVKSMDATLKTMNLEKISALMDKFEHQFETLDVQTQQMEDTMSSTTTLTTPQNQVDMLLQEMADEAGLDLNMELPQGQTGSVGTSVASAEQDELSQRLARLRDQV [CHMP1B] showed thermal stability score equal to -0.997

----------
Documented solubility change mitosis (log2) across a set of sequences
Test system: HeLa Kyoto
test.summary: solubility change mitosis vs G1/S (difference of NP-40 vs SDS log2 ratios) (log2 ratio difference); higher = more soluble in mitosis
Just the number, please.

INSERT INTO measurements (residue_sequence, property_measured, value_measured) VALUES
  ('MYPESTTGSPARLSLRQTGSPGMIYSTRYGSPKRQLQFYRNLGKSGLRVSCLGLGTWVTFGGQITDEMAEQLMTLAYDNGINLFDTAEVYAAGKAEVVLGNIIKKKGWRRSSLVITTKIFWGGKAETERGLSRKHIIEGLKASLERLQLEYVDVVFANRPDPNTPMEETVRAMTHVINQGMAMYWGTSRWSSMEIMEAYSVARQFNLTPPICEQAEYHMFQREKVEVQLPELFHKIGVGAMTWSPLACGIVSGKYDSGIPPYSRASLKGYQWLKDKILSEEGRRQQAKLKELQAIAERLGCTLPQLAIAWCLRNEGVSSVLLGASNADQLMENIGAIQVLPKLSSSIIHEIDSILGNKPYSKKDYRS [KCNAB2]', 'solubility change mitosis (log2)', -0.201);

Measured solubility change mitosis (log2) (HeLa Kyoto), entry MERKISRIHLVSEPSITHFLQVSWEKTLESGFVITLTDGHSAWTGTVSESEISQEADDMAMEKGKYVGELRKALLSGAGPADVYTFNFSKESCYFFFEKNLKDVSFRLGSFNLEKVENPAEVIRELICYCLDTIAENQAKNEHLQKENERLLRDWNDVQGRFEKCVSAKEALETDLYKRFILVLNEKKTKIRSLHNKLLNAAQEREKDIKQEGETAICSEMTADRDPVYDESTDEESENQTDLSGLASAAVSKDDSIISSLDVTDIAPSRKRRQRMQRNLGTEPKMAPQENQLQEKENSRPDSSLPETSKKEHISAENMSLETLRNSSPEDLFDEI [XRCC4] : -0.0112

----------
Documented melting temperature across a set of sequences
System: HeLa Kyoto
test.summary: melting temperature (median over replicates), in situ; higher = more thermally stable
experimental.setup: cell cycle stage: mitosis
Lab note: write values as number then unit, every time.

INSERT INTO assay_data (residue_sequence, target, value_measured) VALUES
  ('MSGELPPNINIKEPRWDQSTFIGRANHFFTVTDPRNILLTNEQLESARKIVHDYRQGIVPPGLTENELWRAKYIYDSAFHPDTGEKMILIGRMSAQVPMNMTITGCMMTFYRTTPAVLFWQWINQSFNAVVNYTNRSGDAPLTVNELGTAYVSATTGAVATALGLNALTKHVSPLIGRFVPFAAVAAANCINIPLMRQRELKVGIPVTDENGNRLGESANAAKQAITQVVVSRILMAAPGMAIPPFIMNTLEKKAFLKRFPWMSAPIQVGLVGFCLVFATPLCCALFPQKSSMSVTSLEAELQAKIQESHPELRRVYFNKGL [SFXN1]', 'HeLa Kyoto', '54.8 °C'),
  ('MGSRASTLLRDEELEEIKKETGFSHSQITRLYSRFTSLDKGENGTLSREDFQRIPELAINPLGDRIINAFFPEGEDQVNFRGFMRTLAHFRPIEDNEKSKDVNGPEPLNSRSNKLHFAFRLYDLDKDEKISRDELLQVLRMMVGVNISDEQLGSIADRTIQEADQDGDSAISFTEFVKVLEKVDVEQKMSIRFLH [CHP1]', 'HeLa Kyoto', '52.6 °C');

Switching to the query record.
The sequence MAAEDELQLPRLPELFETGRQLLDEVEVATEPAGSRIVQEKVFKGLDLLEKAAEMLSQLDLFSRNEDLEEIASTDLKYLLVPAFQGALTMKQVNPSKRLDHLQRAREHFINYLTQCHCYHVAEFELPKTMNNSAENHTANSSMAYPSLVAMASQRQAKIQRYKQKKELEHRLSAMKSAVESGQADDERVREYYLLHLQRWIDISLEEIESIDQEIKILRERDSSREASTSNSSRQERPPVKPFILTRNMAQAKVFGAGYPSLPTMTVSDWYEQHRKYGALPDQGIAKAAPEEFRKAAQQQEEQEEKEEEDDEQTLHRAREWDDWKDTHPRGYGNRQNMG [IGBP1] showed melting temperature equal to 51.4 °C
